Target: T1, human MICA allele MICA*004 (human, UniProt Q29983 24-297)
T1 construct: Expressed on transfected C1R cells; also called MICA*04; C1R-MICA*004
T1 chain: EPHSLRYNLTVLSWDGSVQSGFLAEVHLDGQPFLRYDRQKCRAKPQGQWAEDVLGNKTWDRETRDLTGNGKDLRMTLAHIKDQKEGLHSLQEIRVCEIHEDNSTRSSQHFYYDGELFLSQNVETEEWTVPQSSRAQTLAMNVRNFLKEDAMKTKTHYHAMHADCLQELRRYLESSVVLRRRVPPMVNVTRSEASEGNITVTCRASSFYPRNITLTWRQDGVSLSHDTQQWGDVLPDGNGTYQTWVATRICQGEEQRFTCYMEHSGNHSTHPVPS
Protocol Summary: flow cytometry, C1R-MICA*004 transfectant cells
Property Measured: EC50 (µg/mL)
Answer with a number only, understood to be in µg/mL.

Example entries begin here.
mAb7 (antibody, V domains shown, Produced in CHO cells as human IgG1 with huCk constant domain) VH: QVQLQESGPGLVKPSETLSLTCTVSGYSITSDYAWNWIRQPPGKGLEWMGFVSYSGTTKYNPSLKSRVTISRDTSENQFSLKLSSVTAADTAVYYCARGYGFDYWGQGTTVTVSS VL: EIVLTQSPATLSLSPGERATLSCSATSSISSIYFHWYQQKPGQAPRLLIYRTSNLASGIPARFSGSGSGTDYTLTISSLEPEDFAVYYCQQGTTIPFTFGQGTKLEIK: 0.0616
mAb12 (antibody, V domains shown, Produced in CHO cells as human IgG1 with huCk constant domain) VH: QVQLQESGPGLVKPSETLSLTCTVSGYSITSDYAWNWIRQPPGKGLEWMGFVSYSGTTKYNPSLKSRITISRDTSENQFSLKLSSVTAADTAVYYCARGYGFDYWGQGTTVTVSS VL: EIVLTQSPATLSLSPGERATLSCSATSSISSIYFHWYQQKPGQAPRLLIYRTSNLASGIPARFSGSGSGTDYTLTISSLEPEDVAVYYCQQGTTIPFTFGQGTKLEIK: 0.0672
mAb5 (antibody, V domains shown, Produced in CHO cells as human IgG1 with huCk constant domain) VH: QVQLQESGPGLVKPSETLSLTCTVSGYSITSDYAWNWIRQPPGKGLEWMGFVSYSGTTKYNPSLKSRVTISRDTSKNQFSLKLSSVTAADTAVYYCARGYGFDYWGQGTTVTVSS VL: EIVLTQSPATLSLSPGERATLSCSATSSISSIYFHWYQQKPGQAPRLLIYRTSNLASGIPARFSGSGSGTSYTLTISSLEPEDFAVYYCQQGTTIPFTFGQGTKLEIK: 0.0762
mAb11 (antibody, V domains shown, Produced in CHO cells as human IgG1 with huCk constant domain) VH: QVQLQESGPGLVKPSETLSLTCTVSGYSITSDYAWNWIRQPPGKGLEWMGFVSYSGTTKYNPSLKSRITISRDTSENQFSLKLSSVTAADTAVYYCARGYGFDYWGQGTTVTVSS VL: EIVLTQSPATLSLSPGERATLSCSATSSISSIYFHWYQQKPGQAPRLLIYRTSNLASGIPARFSGSGSGTSYTLTISSLEPEDFAVYYCQQGTTIPFTFGQGTKLEIK: 0.0614
mAb1 (antibody, V domains shown, Produced in CHO cells as human IgG1 with huCk constant domain; also called anti-MICA mAb1; anti-MICA antibody mAb1) VH: QVQLQESGPGLVKPSETLSLTCTVSGYSITSDYAWNWIRQPPGKGLEWIGFVSYSGTTKYNPSLKSRVTISRDTSKNQFSLKLSSVTAADTAVYYCARGYGFDYWGQGTTVTVSS VL: EIVLTQSPATLSLSPGERATLSCSATSSISSIYFHWYQQKPGQAPRLLIYRTSNLASGIPARFSGSGSGTDYTLTISSLEPEDFAVYYCQQGTTIPFTFGQGTKLEIK: 0.0417

# input binder: mAb4 (antibody, V domains shown, Produced in CHO cells as human IgG1 with huCk constant domain) VH: QVQLQESGPGLVKPSETLSLTCTVSGYSITSDYAWNWIRQPPGKGLEWMGFVSYSGTTKYNPSLKSRVTISRDTSKNQFSLKLSSVTAADTAVYYCARGYGFDYWGQGTTVTVSS VL: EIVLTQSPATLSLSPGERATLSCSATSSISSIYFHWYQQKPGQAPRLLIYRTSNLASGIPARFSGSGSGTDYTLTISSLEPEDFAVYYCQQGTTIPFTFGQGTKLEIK ; wanted: its EC50
0.063

Next entry: mAb10 (antibody, V domains shown, Produced in CHO cells as human IgG1 with huCk constant domain) VH: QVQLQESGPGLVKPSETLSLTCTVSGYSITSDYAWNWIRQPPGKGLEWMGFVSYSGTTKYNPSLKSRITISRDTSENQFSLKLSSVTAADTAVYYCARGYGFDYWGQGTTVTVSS VL: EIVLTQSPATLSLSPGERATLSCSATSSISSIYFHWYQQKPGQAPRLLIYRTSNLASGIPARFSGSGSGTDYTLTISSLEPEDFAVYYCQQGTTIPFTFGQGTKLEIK
0.0631
